Molecular target: beta-catenin (Homo sapiens, UniProt P35222)
Construct: made in house; host or cells: E. coli BL21 (DE3) pLysS
Sequence (P35222 134-665): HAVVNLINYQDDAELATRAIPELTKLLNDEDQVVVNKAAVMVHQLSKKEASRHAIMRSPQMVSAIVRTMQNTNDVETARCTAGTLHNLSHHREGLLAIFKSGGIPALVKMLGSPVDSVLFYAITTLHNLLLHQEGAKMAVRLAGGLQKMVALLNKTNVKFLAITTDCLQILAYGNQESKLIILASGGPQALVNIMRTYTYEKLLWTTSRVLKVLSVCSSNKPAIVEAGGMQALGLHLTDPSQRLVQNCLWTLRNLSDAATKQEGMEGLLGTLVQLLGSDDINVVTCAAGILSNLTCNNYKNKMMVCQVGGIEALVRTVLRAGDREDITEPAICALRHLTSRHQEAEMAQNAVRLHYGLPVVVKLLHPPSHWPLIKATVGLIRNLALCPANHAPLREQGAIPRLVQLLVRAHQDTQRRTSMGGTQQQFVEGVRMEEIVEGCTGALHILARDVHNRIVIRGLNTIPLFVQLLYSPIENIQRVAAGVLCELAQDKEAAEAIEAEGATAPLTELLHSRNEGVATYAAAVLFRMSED
Assay: Phage Library Screening with NGS, beta-catenin
Assay type: binding
Settings: beta-catenin target concentration 300; no competitor
property: Target Concentration 300 (phage screen NGS readout)

[
  {
    "entrySequence": "DPAIFNCTMAALECTQI",
    "testValue": 3
  },
  {
    "entrySequence": "DPAVEDCVLAAHVCAWF",
    "testValue": 39
  },
  {
    "entrySequence": "DPAYWDCTHAALLCNLD",
    "testValue": 42
  },
  {
    "entrySequence": "DPAQWACEHAALLCSMD",
    "testValue": 419
  },
  {
    "entrySequence": "DPAIIHCYQAAFQCQYM",
    "testValue": 0
  }
]

Enquiry: Please give the measured Target Concentration 300 (phage screen NGS readout) for this sequence: DPAMIQCQWAAEHCELI
Return: 33

Enquiry: Looking for the measured Target Concentration 300 (phage screen NGS readout) of DPAQFYCEHAALLCRWE , can you help?
Return: 11

Enquiry: Form field: reported Target Concentration 300 (phage screen NGS readout) of DPAVVECYEAAYTCQYI
Return: 0

###

Target: CUL4B (Homo sapiens, UniProt Q13620, L520D/V516R)
Construct: GST-TEV (N, cleaved yes); made in house; host or cells: E. coli BL21 CodonPlus
Sequence (Q13620 206-557 V516R/L520D): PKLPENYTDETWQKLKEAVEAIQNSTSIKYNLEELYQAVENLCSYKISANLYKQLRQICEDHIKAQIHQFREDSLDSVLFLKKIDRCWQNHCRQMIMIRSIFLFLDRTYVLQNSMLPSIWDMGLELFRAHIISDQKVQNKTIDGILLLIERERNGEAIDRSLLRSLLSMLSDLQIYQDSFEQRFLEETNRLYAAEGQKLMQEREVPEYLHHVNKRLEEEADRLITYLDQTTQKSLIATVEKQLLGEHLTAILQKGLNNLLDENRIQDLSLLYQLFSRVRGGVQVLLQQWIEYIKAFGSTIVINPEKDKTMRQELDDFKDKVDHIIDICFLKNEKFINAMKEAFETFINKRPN
Assay: Naive Library Presenter Screening (phage, NGS), CUL4B
Type: binding
Details: CUL4B target concentration 100 nM
# thresholds on interaction data at Target Concentration 100 define classes: band 1: < 1; band 2: ≥ 1 and < 10; band 3: ≥ 10

Known results for sequences:
[
  {
    "entrySequence": "DPADRLCELAAWVCQSF",
    "discreteLabel": "band 1"
  },
  {
    "entrySequence": "DPASRMCEMAAWFCENY",
    "discreteLabel": "band 3"
  },
  {
    "entrySequence": "DPADRQCIFAAWMCEAF",
    "discreteLabel": "band 2"
  },
  {
    "entrySequence": "DPAERHCQLAAWVCHQF",
    "discreteLabel": "band 1"
  },
  {
    "entrySequence": "DPADRQCLFAAWYCEHT",
    "discreteLabel": "band 1"
  }
]

Turning to the following sequence.
Enquiry: Which band does DPATTECILAAWICDRF fall in?
Return: band 3

###

Molecular target: RNF31 UBA domain (Homo sapiens, UniProt Q96EP0)
Construct: RNF31 UBA domain protein (residues 480-639) with N-terminal Thioredoxin-TEV-6×his-yBBr-3C tags; Thioredoxin (N, cleaved yes); made in house; host or cells: E. coli BL21 (DE3) pLysS
Sequence (Q96EP0 480-639): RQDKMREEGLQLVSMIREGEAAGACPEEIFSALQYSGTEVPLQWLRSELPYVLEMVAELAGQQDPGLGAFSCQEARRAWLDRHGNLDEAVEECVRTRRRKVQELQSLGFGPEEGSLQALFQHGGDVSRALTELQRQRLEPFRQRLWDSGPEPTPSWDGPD
Experiment: Phage Library Screening with NGS, RNF31 UBA domain
Assay type: binding
Settings: Target Concentration 300; no competitor
Use phage screen NGS read-out at Target Concentration 300 to assign classes; range list: low: < 2; moderate: ≥ 2 and < 7; high: ≥ 7

[
  {
    "entrySequence": "DPAFSLCVYAAVECDHA",
    "discreteLabel": "low"
  }
]

Enquiry: # bin lookup: classify DPAFSTCVYAAVFCQNT by its phage screen NGS read-out at Target Concentration 300
Return: high

Enquiry: Which category does the recorded phage screen NGS read-out at Target Concentration 300 put DPAMYICEMAAANCLYQ in?
Return: moderate

Enquiry: Which bin should I file DPAEWICEMAAHNCLYM under?
Return: low

Enquiry: Kindly state the category for this sequence: DPAQRDCFSAAVYCSFL
Return: high

Enquiry: Class? Entry: DPAREHCDSAAAWCWVL
Return: moderate

Enquiry: Dear colleague, I would appreciate it if you could identify the bin for DPAFFTCVYAAVTCEMT and reply at your convenience.
Return: moderate

Enquiry: Lab log: DPAFSECVYAATMCLNH — assign phage screen NGS read-out at Target Concentration 300 category
Return: low

Enquiry: Tag the class for DPAFSACVYAAYMCNQD
Return: moderate

Enquiry: Which bin should I file DPAEWLCQMAAHNCIYL under?
Return: high

Enquiry: Band assignment needed for DPAHILCEMAARNCLYN please.
Return: low

Enquiry: Class? Entry: DPAFSRCVYAAVACEDH
Return: high

Enquiry: Which bin should I file DPAFSTCIYAAVMCMDQ under?
Return: high

###

Target: beta-catenin (Homo sapiens)
Construct: made in house; host or cells: E. coli BL21 (DE3) pLysS
Sequence (P35222 134-665): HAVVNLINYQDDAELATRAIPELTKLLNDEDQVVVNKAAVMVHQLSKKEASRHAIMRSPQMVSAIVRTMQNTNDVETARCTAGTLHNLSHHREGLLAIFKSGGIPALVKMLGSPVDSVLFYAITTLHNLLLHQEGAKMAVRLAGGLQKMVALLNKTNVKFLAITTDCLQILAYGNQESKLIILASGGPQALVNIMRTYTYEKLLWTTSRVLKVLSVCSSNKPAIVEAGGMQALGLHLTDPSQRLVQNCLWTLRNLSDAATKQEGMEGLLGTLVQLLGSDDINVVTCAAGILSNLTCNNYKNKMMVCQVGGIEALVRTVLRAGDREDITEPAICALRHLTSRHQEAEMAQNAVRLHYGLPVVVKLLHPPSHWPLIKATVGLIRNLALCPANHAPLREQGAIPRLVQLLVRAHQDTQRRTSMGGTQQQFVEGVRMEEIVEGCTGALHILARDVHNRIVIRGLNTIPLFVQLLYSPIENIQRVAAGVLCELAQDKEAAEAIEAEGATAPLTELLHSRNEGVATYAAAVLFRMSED
Assay: Phage Library Screening with NGS, beta-catenin
Assay type: binding
Settings: BLANK, second column
property: Target Concentration BLANK (phage screen NGS readout)

Enquiry: Please look up its Target Concentration BLANK (phage screen NGS readout): DPAILNCHVAAWNCHSF
Return: 0

Enquiry: Recorded Target Concentration BLANK (phage screen NGS readout) of DPAVHRCFWAAEHCDLI , please.
Return: 2

Enquiry: Look up Target Concentration BLANK (phage screen NGS readout): DPAILECHVAALDCQMW
Return: 2

Enquiry: What does the data say about its Target Concentration BLANK (phage screen NGS readout)? Entry: DPAIMACYQAAFWCQYN
Return: 0

Enquiry: // lookup Target Concentration BLANK (phage screen NGS readout) for DPAQQDCTLAAHVCRVF
Return: 0

Enquiry: Reported Target Concentration BLANK (phage screen NGS readout) for DPAEVDCIMAAHICVWD : what is it?
Return: 0

Enquiry: If you can, please state the reported Target Concentration BLANK (phage screen NGS readout) value of DPAIADCDWAAEHCDLL .
Return: 1

Enquiry: Requested field: Target Concentration BLANK (phage screen NGS readout). Item: DPARMTCYEAAFRCQYY
Return: 0

Enquiry: I'd like to know its Target Concentration BLANK (phage screen NGS readout). The sequence in question is DPAEWQCEHAALLCEQQ
Return: 2

Enquiry: Given the sequence DPAVEDCVLAAHVCAWF , what is its reported Target Concentration BLANK (phage screen NGS readout)?
Return: 0

Enquiry: Looking for the measured Target Concentration BLANK (phage screen NGS readout) of DPAYWVCEHAALLCTDY , can you help?
Return: 3

Enquiry: So what does the record say about Target Concentration BLANK (phage screen NGS readout) for DPASWRCEHAALNCQID ?
Return: 0

Enquiry: Name the recorded Target Concentration BLANK (phage screen NGS readout) for DPADEDCILAAHVCRHF .
Return: 0

Enquiry: Consider the sequence DPAEWDCMHAALICEVH and give its measured Target Concentration BLANK (phage screen NGS readout).
Return: 0
